Tested on: K-562 leukemia
Experiment: NCI-60 one-dose screen, 48 h (100 = growth as untreated, 0 = no growth, -100 = all killed)
Conditions: 10 µM
About 83,000 compounds went through this panel and 20% of them were active in at least one assay; those are over-represented in the sample as a whole. Active and inactive are the calls of the source. Rule for the calls: active = growth percent below 10; inactive = the rest.
Answer each item with its documented growth.

Test system K-562 leukemia; read-out growth; what value for `Cc1ccc(NC(=S)NNC(=S)Nc2ccc(C)cc2)cc1` ? 19.4% (inactive)

Test system K-562 leukemia; read-out growth; what value for CC(C)c1ccc(C(C)C(=O)N(CC2=C(C(C)c3ccccn3)c3ccccc3C2)C(C)C)cc1 (stereo not given) ? 24.5% (inactive)

Test system K-562 leukemia; read-out growth; what value for `COc1ccc(-c2cc(-c3cc(OC)ccc3OC)nc(N)c2C#N)cc1` ? 89.5% (inactive)

Test system K-562 leukemia; read-out growth; what value for `CCOS(=O)(=O)c1c(C(C)C)cc(C(C)C)cc1C(C)C` ? 92.8% (inactive)

Test system K-562 leukemia; read-out growth; what value for CC(C1=C(CN(C(=O)Cc2cn(-c3ccccc3)nc2-c2ccc(Cl)cc2)C(C)C)Cc2ccccc21)c1ccccn1 (stereo not given) ? 43.4% (inactive)

Origin of values: PubChem BioAssay (NCI)
